# study.target: UniProt:P49841
# Sequence (P49841 whole entry, species assumed): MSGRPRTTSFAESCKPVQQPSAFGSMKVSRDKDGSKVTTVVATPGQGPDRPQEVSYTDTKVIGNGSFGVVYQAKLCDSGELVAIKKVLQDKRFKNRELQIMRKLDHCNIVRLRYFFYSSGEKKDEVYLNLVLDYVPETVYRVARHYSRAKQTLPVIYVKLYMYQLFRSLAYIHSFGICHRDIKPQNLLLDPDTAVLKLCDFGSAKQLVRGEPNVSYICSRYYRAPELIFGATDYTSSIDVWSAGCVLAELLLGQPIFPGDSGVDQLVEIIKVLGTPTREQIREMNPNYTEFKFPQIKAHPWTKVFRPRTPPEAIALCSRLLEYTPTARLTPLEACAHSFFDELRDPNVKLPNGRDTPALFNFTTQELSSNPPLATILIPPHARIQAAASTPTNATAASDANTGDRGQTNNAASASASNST
# protocol.notes: GSK3beta assay (SPA, biotinylated phosphorylated CREB peptide, ATP-P33)
# Assay type: biochemical
# run.parameters: ranges of pIC50 (−log IC50 (M)); 1 μM ATP, room temperature, one hour; read-out: GSK3b pIC50 (converted)
assay.endpoint: IC50

[[record]]
compound = "COc1cc(-n2nnc3cnc(Nc4cccc(-c5nccn5C)c4)nc32)cc(C(F)(F)F)c1"
study_target = "UniProt:P49841"
recorded_measurement = "< 1e-08 M"

[[record]]
compound = "Fc1cccc(-n2nnc3cnc(Nc4cccc(-c5nnn[nH]5)c4)nc32)c1"
study_target = "UniProt:P49841"
recorded_measurement = "< 1e-08 M"

[[record]]
compound = "CN1CCN(C(=O)c2ccc(Nc3ncc4nnn(-c5cccc(CC#N)c5)c4n3)cc2)CC1"
study_target = "UniProt:P49841"
recorded_measurement = "< 1e-08 M"

[[record]]
compound = "COCc1cccc(-n2nnc3cnc(Nc4ccc(CN5CCC(O)CC5)cc4)nc32)c1"
study_target = "UniProt:P49841"
recorded_measurement = "1e-08 to 1e-07 M"

[[record]]
compound = "Fc1cccc(-n2nnc3cnc(Nc4ccc(-n5cccc5)cc4)nc32)c1"
study_target = "UniProt:P49841"
recorded_measurement = "> 1e-07 M"

[[record]]
compound = "OCCc1cccc(-n2nnc3cnc(Nc4ccc(Nc5ncccn5)cc4)nc32)c1"
study_target = "UniProt:P49841"
recorded_measurement = "< 1e-08 M"

[[record]]
compound = "COc1cccc(-n2nnc3cnc(Nc4cccc(-c5nnnn5C)c4)nc32)c1"
study_target = "UniProt:P49841"
recorded_measurement = "< 1e-08 M"

[[record]]
compound = "N#CNc1nccc(-c2cccc(Nc3ncc4nnn(-c5cccc(F)c5)c4n3)c2)n1"
study_target = "UniProt:P49841"
recorded_measurement = "< 1e-08 M"

[[record]]
compound = "CCC(C)n1ncn(-c2ccc(Nc3ncc4nnn(-c5cccc(F)c5)c4n3)cc2)c1=O (stereo not drawn)"
study_target = "UniProt:P49841"
recorded_measurement = "1e-08 to 1e-07 M"

[[record]]
compound = "CN1CCN(c2ccc(Nc3ncc4nnn(-c5cccc(CC#N)c5)c4n3)cc2)CC1"
study_target = "UniProt:P49841"
recorded_measurement = "< 1e-08 M"

[[record]]
compound = "COCCOCc1cccc(-n2nnc3cnc(Nc4ccc(C(=O)NCCN5CCOCC5)cc4)nc32)c1"
study_target = "UniProt:P49841"
recorded_measurement = "< 1e-08 M"

[[record]]
compound = "Brc1cccc(-n2nnc3cnc(Nc4ccc(-c5cc[nH]n5)cc4)nc32)c1"
study_target = "UniProt:P49841"
recorded_measurement = "1e-08 to 1e-07 M"


----------
# study.target: GSK3alpha (Homo sapiens, UniProt P49840)
# Sequence (P49840 whole entry, species assumed): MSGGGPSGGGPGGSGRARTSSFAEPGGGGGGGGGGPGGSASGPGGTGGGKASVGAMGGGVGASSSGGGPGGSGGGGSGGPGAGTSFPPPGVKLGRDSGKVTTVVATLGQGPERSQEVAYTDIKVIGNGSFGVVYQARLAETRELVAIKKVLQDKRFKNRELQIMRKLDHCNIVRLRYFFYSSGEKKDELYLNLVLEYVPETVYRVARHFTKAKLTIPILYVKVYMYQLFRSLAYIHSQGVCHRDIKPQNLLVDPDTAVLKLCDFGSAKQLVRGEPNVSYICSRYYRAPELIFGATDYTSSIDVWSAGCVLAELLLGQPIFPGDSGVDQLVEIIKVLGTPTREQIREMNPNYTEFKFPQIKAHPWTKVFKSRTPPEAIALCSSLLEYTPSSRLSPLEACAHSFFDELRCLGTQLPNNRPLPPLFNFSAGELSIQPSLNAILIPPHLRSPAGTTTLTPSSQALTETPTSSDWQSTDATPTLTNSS
# protocol.notes: GSK3alpha assay (same as the GSK3beta assay, 0.25 ng/μl GSK3alpha)
# Format: biochemical
# run.parameters: ranges of pIC50 (−log IC50 (M)), 1 μM ATP, read-out: GSK3a pIC50 (converted)
assay.endpoint: IC50

[[record]]
chemical_structure = "Cc1nccc(-c2cccc(Nc3ncc4nnn(-c5cccc(F)c5)c4n3)c2)n1"
recorded_measurement = "< 1e-08 M"

[[record]]
chemical_structure = "Brc1cccc(-n2nnc3cnc(Nc4ccc(-c5cc[nH]n5)cc4)nc32)c1"
recorded_measurement = "< 1e-08 M"

[[record]]
chemical_structure = "COCCOc1cccc(-n2nnc3cnc(Nc4ccc(C(=O)N5CCN(C)CC5)cc4)nc32)c1"
recorded_measurement = "< 1e-08 M"

